- test_method_notes: chemical genetic growth profiling, strain panel (AID 1159580);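 note: tested at 20 µM; growth read once vehicle control cultures reached saturation at 30 °C; 1 = growth at the plate median or of vehicle wells; lower values mean less growth of the strain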
- reported_conditions: S. cerevisiae deletion strains, growth OD, locus YLR085C, strain ARP6, stronger effect = lower value
About 2,000 (36%) of roughly 5,500 compounds were called active. Not shown: some 18% with an inconclusive outcome. This is one part of the list.
measured_attribute: normalized growth
Number, no unit, nothing else.

1) COC(=O)c1cccc([N+](=O)[O-])c1-c1c(C(=O)OC)cccc1[N+](=O)[O-] :: 1.03
2) N/C(=N/O)c1cnccc1C(F)(F)F :: 0.976

Lab note: measured normalized growth of `CCOC(=O)c1ccc(NC(=S)N2CCOCC2)cc1` was 0.991

Lab note: measured normalized growth of `Cc1cc(N=C(N)N=C(N)N)no1` was 0.988

Lab note: measured normalized growth of Cc1cc(S(=O)(=O)NC(Cc2ccc([N+](=O)[O-])cc2)C(=O)O)c(Cl)cc1Cl (configuration not stated) was 1.02

Lab note: measured normalized growth of `O=C1NCCN=C(c2ccccc2)c2ccccc21` was 1.01

Lab note: measured normalized growth of `O=C(O)c1cccc([N+](=O)[O-])c1C(=O)Nc1ccc(F)cc1` was 1
